molecular target: T1, Recombinant MBP-mutCALR Type 1 fusion protein (human); test: SPR, IgG captured, 1:1 fit, Exp. 2
T1 construct: custom made at Cepter; also called recombinant mutCALR protein
Here the recorded Kd is given for each entry.
measurementKind: Kd

• anti-mutCALR antibody clone 142 (antibody, human IgG1, lambda, N297A, V domains shown, human IgG1 N297A variant of clone 15) VH: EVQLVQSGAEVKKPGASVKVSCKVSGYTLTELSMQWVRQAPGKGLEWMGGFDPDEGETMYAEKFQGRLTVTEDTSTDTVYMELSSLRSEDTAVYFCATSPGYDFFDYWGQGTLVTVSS VL: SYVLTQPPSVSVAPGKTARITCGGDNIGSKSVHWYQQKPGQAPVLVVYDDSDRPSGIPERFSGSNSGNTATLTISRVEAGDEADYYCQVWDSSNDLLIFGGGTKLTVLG = 2.27 nM
• anti-mutCALR antibody clone 82 (antibody, human IgG1, lambda, N297A, V domains shown, human IgG1 N297A variant of clone 6) VH: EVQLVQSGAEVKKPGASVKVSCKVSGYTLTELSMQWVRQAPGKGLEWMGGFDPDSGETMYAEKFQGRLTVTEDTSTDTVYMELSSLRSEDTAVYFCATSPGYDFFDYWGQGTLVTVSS VL: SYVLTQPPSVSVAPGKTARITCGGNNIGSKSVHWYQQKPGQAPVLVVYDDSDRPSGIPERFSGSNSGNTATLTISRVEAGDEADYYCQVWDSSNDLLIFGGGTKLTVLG = 6.23 nM
• anti-mutCALR antibody clone 176 (antibody, human IgG1, lambda, N297A, V domains shown) VH: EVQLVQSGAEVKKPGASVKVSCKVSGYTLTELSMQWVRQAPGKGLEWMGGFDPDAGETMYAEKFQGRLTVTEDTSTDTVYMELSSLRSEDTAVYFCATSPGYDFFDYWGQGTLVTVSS VL: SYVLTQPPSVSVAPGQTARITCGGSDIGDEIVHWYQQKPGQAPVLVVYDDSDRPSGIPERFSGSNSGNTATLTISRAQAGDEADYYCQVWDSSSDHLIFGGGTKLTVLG = 2.8 nM

meta.source: patent US20230272055A1
